experiment: Cmax in rat at 30 mg/kg, po; type: ADME, organism-based; design: dose 30 mg/kg, route oral; conditions: in vivo
The label is t for Cmax below 10000 ng/mL and f for Cmax equal to or exceeding 10000 ng/mL.

Input: Report whether reported Cmax is lower than 10000 ng/mL (strictly) for O=C(O)CCCN1CC(C(=O)O)Oc2c(/C=C/c3ccc(OCCCCc4ccccc4)cc3)cccc21 (stereo not given)
Output: f

Input: Please indicate whether the reported Cmax of O=C(O)CCCN1CC(C(=O)O)Oc2c(CCc3ccc(OCCCCc4ccccc4)cc3)cccc21 (stereo not given) is strictly below 10000 ng/mL.
Output: f

Input: Check if Cmax falls below 10000 ng/mL for O=C(O)CCCN1CC(C(=O)O)Oc2c(OCc3ccc(OCCCCc4ccccc4)cc3)cccc21 (stereo not given) .
Output: t

Input: Cmax under 10000 ng/mL? Item: O=C(O)CCCN1CC(c2nnn[nH]2)Oc2c(NC(=O)c3ccc(OCCCCc4ccccc4)cc3)cccc21 (stereo not given)
Output: t

Input: Hi there! Is Cmax for O=C(O)CCCN1CC(C(=O)O)Oc2c(NC(=O)c3ccc(OCCCCc4ccccc4)cc3)cccc21 (stereo not given) below 10000 ng/mL, do you know?
Output: t
